Values compiled from patent US8007996B2.

target: PAD4 (Homo sapiens, UniProt Q9UM07)
Construct: made in house
Sequence (Q9UM07 whole entry): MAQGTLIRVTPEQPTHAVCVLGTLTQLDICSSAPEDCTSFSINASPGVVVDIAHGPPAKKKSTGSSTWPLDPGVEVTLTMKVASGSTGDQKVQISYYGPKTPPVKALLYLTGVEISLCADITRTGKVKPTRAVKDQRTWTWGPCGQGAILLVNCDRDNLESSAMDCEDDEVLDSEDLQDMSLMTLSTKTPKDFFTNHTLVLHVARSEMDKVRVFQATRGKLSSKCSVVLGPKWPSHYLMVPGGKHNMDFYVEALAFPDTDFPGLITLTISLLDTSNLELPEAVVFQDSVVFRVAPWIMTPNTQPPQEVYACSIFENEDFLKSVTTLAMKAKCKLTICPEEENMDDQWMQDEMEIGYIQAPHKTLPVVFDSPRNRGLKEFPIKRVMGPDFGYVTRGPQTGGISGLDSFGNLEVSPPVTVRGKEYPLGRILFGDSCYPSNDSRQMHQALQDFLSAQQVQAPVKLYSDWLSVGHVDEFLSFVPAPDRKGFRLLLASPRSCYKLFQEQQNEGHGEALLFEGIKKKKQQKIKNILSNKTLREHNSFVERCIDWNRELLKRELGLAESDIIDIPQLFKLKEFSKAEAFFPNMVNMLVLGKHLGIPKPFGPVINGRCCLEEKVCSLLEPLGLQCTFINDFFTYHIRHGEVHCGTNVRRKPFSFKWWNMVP
procedure-summary: Standard PAD4 assay (citrulline formation from BAEE), IC50 studies
Assay type: biochemical
study-conditions: 1 mM BAEE, 0.2 μM PAD4, 15 min pre-incubation at 37° C.
quantity-measured: pIC50
# pIC50 = -log10(concentration in molar units)

>>> observed_value("COc1cc(Cc2cnc(N)nc2N)cc(OC)c1OC")
2.12
>>> observed_value("CN(C)[C@H]1C(O)=C(C(N)=O)C(=O)C2(O)C(O)=C3C(=O)c4c(O)cccc4C(C)(O)C3CC12 (stereo partly shown)")
4.00

Bench note, PAD4 (Homo sapiens, UniProt Q9UM07): entry CN(C)c1ccc(O)c2c1C[C@H]1C[C@H]3[C@H](N(C)C)C(O)=C(C(N)=O)C(=O)[C@@]3(O)C(O)=C1C2=O , its pIC50 = 3.21
